experimental.context: in methanol, 293.15 K

structure.smiles	solubility (mole fraction)
CS(=O)(=O)c1ccc([C@@H](O)[C@@H](CO)NC(=O)C(Cl)Cl)cc1	0.000715

* * *

experimental.context: in 1,4-dioxane, 318.15 K

structure.smiles	solubility (mole fraction)
CS(=O)(=O)c1ccc([C@@H](O)[C@@H](CO)NC(=O)C(Cl)Cl)cc1	0.00227

* * *

experimental.context: in isopropanol, 278.15 K
measurement.label: solubility (mole fraction)

structure.smiles	measurement.label	data.value
CS(=O)(=O)c1ccc([C@@H](O)[C@@H](CO)NC(=O)C(Cl)Cl)cc1	solubility (mole fraction)	3.46e-05

* * *

experimental.context: in 2-butanone, 283.15 K
measurement.label: solubility (mole fraction)

structure.smiles	measurement.label	data.value
CS(=O)(=O)c1ccc([C@@H](O)[C@@H](CO)NC(=O)C(Cl)Cl)cc1	solubility (mole fraction)	0.000197

* * *

experimental.context: in water, 283.15 K
measurement.label: solubility (mole fraction)

structure.smiles	data.value
CS(=O)(=O)c1ccc([C@@H](O)[C@@H](CO)NC(=O)C(Cl)Cl)cc1	3.42e-05

* * *

experimental.context: in water, 278.15 K
measurement.label: solubility (mole fraction)

structure.smiles	data.value
CS(=O)(=O)c1ccc([C@@H](O)[C@@H](CO)NC(=O)C(Cl)Cl)cc1	2.5e-05

* * *

experimental.context: in acetonitrile, 298.15 K

structure.smiles	solubility (mole fraction)
CS(=O)(=O)c1ccc([C@@H](O)[C@@H](CO)NC(=O)C(Cl)Cl)cc1	0.000363

* * *

experimental.context: in isopropanol, 318.15 K
measurement.label: solubility (mole fraction)

structure.smiles	measurement.label	data.value
CS(=O)(=O)c1ccc([C@@H](O)[C@@H](CO)NC(=O)C(Cl)Cl)cc1	solubility (mole fraction)	0.000493

* * *

experimental.context: in DMF, 283.15 K
measurement.label: solubility (mole fraction)

structure.smiles	data.value
CS(=O)(=O)c1ccc([C@@H](O)[C@@H](CO)NC(=O)C(Cl)Cl)cc1	0.012

* * *

experimental.context: in DMF, 278.15 K

structure.smiles	solubility (mole fraction)
CS(=O)(=O)c1ccc([C@@H](O)[C@@H](CO)NC(=O)C(Cl)Cl)cc1	0.0092

* * *

experimental.context: in 1,4-dioxane, 293.15 K

structure.smiles	solubility (mole fraction)
CS(=O)(=O)c1ccc([C@@H](O)[C@@H](CO)NC(=O)C(Cl)Cl)cc1	0.000508

* * *

experimental.context: in n-butanol, 318.15 K
measurement.label: solubility (mole fraction)

structure.smiles	measurement.label	data.value
CS(=O)(=O)c1ccc([C@@H](O)[C@@H](CO)NC(=O)C(Cl)Cl)cc1	solubility (mole fraction)	0.000165

* * *

experimental.context: in 1,4-dioxane, 313.15 K
measurement.label: solubility (mole fraction)

structure.smiles	data.value
CS(=O)(=O)c1ccc([C@@H](O)[C@@H](CO)NC(=O)C(Cl)Cl)cc1	0.00173

* * *

experimental.context: in acetonitrile, 308.15 K

structure.smiles	solubility (mole fraction)
CS(=O)(=O)c1ccc([C@@H](O)[C@@H](CO)NC(=O)C(Cl)Cl)cc1	0.000716

* * *

experimental.context: in 2-butanone, 303.15 K

structure.smiles	solubility (mole fraction)
CS(=O)(=O)c1ccc([C@@H](O)[C@@H](CO)NC(=O)C(Cl)Cl)cc1	0.000704

* * *

experimental.context: in DMF, 298.15 K

structure.smiles	solubility (mole fraction)
CS(=O)(=O)c1ccc([C@@H](O)[C@@H](CO)NC(=O)C(Cl)Cl)cc1	0.025

* * *

experimental.context: in ethyl acetate, 278.15 K
measurement.label: solubility (mole fraction)

structure.smiles	data.value
CS(=O)(=O)c1ccc([C@@H](O)[C@@H](CO)NC(=O)C(Cl)Cl)cc1	6.24e-05

* * *

experimental.context: in ethyl acetate, 283.15 K
measurement.label: solubility (mole fraction)

structure.smiles	data.value
CS(=O)(=O)c1ccc([C@@H](O)[C@@H](CO)NC(=O)C(Cl)Cl)cc1	9.09e-05

* * *

experimental.context: in acetone, 303.15 K

structure.smiles	solubility (mole fraction)
CS(=O)(=O)c1ccc([C@@H](O)[C@@H](CO)NC(=O)C(Cl)Cl)cc1	0.00149

* * *

experimental.context: in n-propanol, 288.15 K
measurement.label: solubility (mole fraction)

structure.smiles	measurement.label	data.value
CS(=O)(=O)c1ccc([C@@H](O)[C@@H](CO)NC(=O)C(Cl)Cl)cc1	solubility (mole fraction)	0.000103

* * *

experimental.context: in methanol, 308.15 K

structure.smiles	solubility (mole fraction)
CS(=O)(=O)c1ccc([C@@H](O)[C@@H](CO)NC(=O)C(Cl)Cl)cc1	0.00189

* * *

experimental.context: in ethanol, 318.15 K

structure.smiles	solubility (mole fraction)
CS(=O)(=O)c1ccc([C@@H](O)[C@@H](CO)NC(=O)C(Cl)Cl)cc1	0.00157

* * *

experimental.context: in toluene, 278.15 K

structure.smiles	solubility (mole fraction)
CS(=O)(=O)c1ccc([C@@H](O)[C@@H](CO)NC(=O)C(Cl)Cl)cc1	3.96e-06

* * *

experimental.context: in water, 298.15 K

structure.smiles	solubility (mole fraction)
CS(=O)(=O)c1ccc([C@@H](O)[C@@H](CO)NC(=O)C(Cl)Cl)cc1	9.52e-05

* * *

experimental.context: in water, 293.15 K

structure.smiles	solubility (mole fraction)
CS(=O)(=O)c1ccc([C@@H](O)[C@@H](CO)NC(=O)C(Cl)Cl)cc1	7.3e-05

* * *

experimental.context: in water, 313.15 K

structure.smiles	solubility (mole fraction)
CS(=O)(=O)c1ccc([C@@H](O)[C@@H](CO)NC(=O)C(Cl)Cl)cc1	0.000253

* * *

experimental.context: in ethanol, 278.15 K
measurement.label: solubility (mole fraction)

structure.smiles	measurement.label	data.value
CS(=O)(=O)c1ccc([C@@H](O)[C@@H](CO)NC(=O)C(Cl)Cl)cc1	solubility (mole fraction)	0.000102

* * *

experimental.context: in 2-butanone, 288.15 K
measurement.label: solubility (mole fraction)

structure.smiles	data.value
CS(=O)(=O)c1ccc([C@@H](O)[C@@H](CO)NC(=O)C(Cl)Cl)cc1	0.000286

* * *

experimental.context: in ethanol, 293.15 K

structure.smiles	solubility (mole fraction)
CS(=O)(=O)c1ccc([C@@H](O)[C@@H](CO)NC(=O)C(Cl)Cl)cc1	0.000309

* * *

experimental.context: in toluene, 308.15 K

structure.smiles	solubility (mole fraction)
CS(=O)(=O)c1ccc([C@@H](O)[C@@H](CO)NC(=O)C(Cl)Cl)cc1	3.81e-05

* * *

experimental.context: in isopropanol, 313.15 K

structure.smiles	solubility (mole fraction)
CS(=O)(=O)c1ccc([C@@H](O)[C@@H](CO)NC(=O)C(Cl)Cl)cc1	0.000364

* * *

experimental.context: in DMF, 293.15 K
measurement.label: solubility (mole fraction)

structure.smiles	data.value
CS(=O)(=O)c1ccc([C@@H](O)[C@@H](CO)NC(=O)C(Cl)Cl)cc1	0.0199

* * *

experimental.context: in ethyl acetate, 293.15 K

structure.smiles	solubility (mole fraction)
CS(=O)(=O)c1ccc([C@@H](O)[C@@H](CO)NC(=O)C(Cl)Cl)cc1	0.000171

* * *

experimental.context: in n-butanol, 278.15 K
measurement.label: solubility (mole fraction)

structure.smiles	data.value
CS(=O)(=O)c1ccc([C@@H](O)[C@@H](CO)NC(=O)C(Cl)Cl)cc1	9.54e-06

* * *

experimental.context: in isopropanol, 293.15 K

structure.smiles	solubility (mole fraction)
CS(=O)(=O)c1ccc([C@@H](O)[C@@H](CO)NC(=O)C(Cl)Cl)cc1	0.000104

* * *

experimental.context: in toluene, 283.15 K
measurement.label: solubility (mole fraction)

structure.smiles	data.value
CS(=O)(=O)c1ccc([C@@H](O)[C@@H](CO)NC(=O)C(Cl)Cl)cc1	6.03e-06

* * *

experimental.context: in n-butanol, 313.15 K

structure.smiles	solubility (mole fraction)
CS(=O)(=O)c1ccc([C@@H](O)[C@@H](CO)NC(=O)C(Cl)Cl)cc1	0.000123

* * *

experimental.context: in n-butanol, 288.15 K
measurement.label: solubility (mole fraction)

structure.smiles	data.value
CS(=O)(=O)c1ccc([C@@H](O)[C@@H](CO)NC(=O)C(Cl)Cl)cc1	2.08e-05

* * *

experimental.context: in DMF, 288.15 K
measurement.label: solubility (mole fraction)

structure.smiles	data.value
CS(=O)(=O)c1ccc([C@@H](O)[C@@H](CO)NC(=O)C(Cl)Cl)cc1	0.0156

* * *

experimental.context: in 1,4-dioxane, 303.15 K
measurement.label: solubility (mole fraction)

structure.smiles	measurement.label	data.value
CS(=O)(=O)c1ccc([C@@H](O)[C@@H](CO)NC(=O)C(Cl)Cl)cc1	solubility (mole fraction)	0.000973

* * *

experimental.context: in toluene, 293.15 K
measurement.label: solubility (mole fraction)

structure.smiles	measurement.label	data.value
CS(=O)(=O)c1ccc([C@@H](O)[C@@H](CO)NC(=O)C(Cl)Cl)cc1	solubility (mole fraction)	1.28e-05
